- System: 885512-296-R-J2-PDC complex spheroid viability
- assay summary: Anticancer human tumor 885512-296-R-J2-PDC patient-derived breast carcinoma cell line growth inhibition
- cond: second compound 0.316 µM; first compound 0.0316 µM; stronger effect = lower value
experimental endpoint: viability, T/C (%)
Expressed in %, but write only the number.

Below: 2 compounds and their reported viability, T/C.
{"columns": ["compound", "viability, T/C / %"],
 "data": [
  ["COc1ccc([C@@H](O)c2cc(-c3ncnc4cc(N5CCOCC5)ccc34)c(F)cc2Cl)nn1 + NC1CC1c1ccc(-c2cccc(O)c2)cc1", 111],
  ["Cn1ncnc1C1c2n[nH]c(=O)c3cc(F)cc(c23)NC1c1ccc(F)cc1 (configuration not stated) + NC1CC1c1ccc(-c2cccc(O)c2)cc1", 64.3]
]}

INPUT: Fill in the recorded viability, T/C for this compound, with 885512-296-R-J2-PDC complex spheroid viability as test system: CC1COCCN1c1cc(C2(S(C)(=N)=O)CC2)nc(-c2ccnc3[nH]ccc23)n1 (configuration not stated) + NC1CC1c1ccc(-c2cccc(O)c2)cc1
OUTPUT: 139

INPUT: Can you look up viability, T/C on 885512-296-R-J2-PDC complex spheroid viability for CC[C@@]1(O)C(=O)OCc2c1cc1n(c2=O)Cc2cc3c(CN(C)C)c(O)ccc3nc2-1 + NC1CC1c1ccc(-c2cccc(O)c2)cc1 ?
OUTPUT: 1.9

----------
- System: 885512-296-R-J2-PDC complex spheroid viability
- assay summary: Anticancer human tumor 885512-296-R-J2-PDC cell line growth inhibition;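 note: spheroids exposed to agents for 7 days before viability read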
- cond: curve of first compound; second compound 3.16 µM
Listing of entries alongside the reported pIC50.
Lab note — pIC50 values are minus log10 of concentrations in M.

INPUT: Which pIC50 is reported for this compound? CC1COCCN1c1cc(C2(S(C)(=N)=O)CC2)nc(-c2ccnc3[nH]ccc23)n1 (stereo not given) + NC1CCC(NC2CC2c2ccccc2)CC1
OUTPUT: 6.92

INPUT: Recorded pIC50 of Nc1ccccc1NC(=O)c1ccc(CNC(=O)OCc2cccnc2)cc1 + NC1CCC(NC2CC2c2ccccc2)CC1 , please.
OUTPUT: 6.91

----------
- Test system: 885512-296-R-J2-PDC complex spheroid viability
- assay summary: Anticancer human tumor 885512-296-R-J2-PDC cell line growth inhibition;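 note: spheroids exposed to agents for 7 days before viability read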
- cond: second compound 0.316 µM; first compound 0.949 µM; stronger effect = lower value
experimental endpoint: viability, T/C

Example entries and their recorded answers appear below.
{"columns": ["compound", "result"],
 "data": [
  ["O=C(C=Cc1cccc(S(=O)(=O)Nc2ccccc2)c1)NO + NC1CCC(NC2CC2c2ccccc2)CC1", "15.7%"],
  ["Nc1ccccc1NC(=O)c1ccc(CNC(=O)OCc2cccnc2)cc1 + NC1CC1c1ccc(-c2cccc(O)c2)cc1", "5.8%"]
]}

Next:
INPUT: Give the measured viability, T/C of CCN(c1cc(-c2ccc(CN3CCOCC3)cc2)cc(C(=O)NCc2c(C)cc(C)[nH]c2=O)c1C)C1CCOCC1 + NC1CC1c1ccc(-c2cccc(O)c2)cc1 .
OUTPUT: 16.2%

----------
Reported IC50 values are given for each entry in this list.
- Test system: 885512-296-R-J2-PDC complex spheroid viability
- assay summary: Anticancer human tumor 885512-296-R-J2-PDC cell line growth inhibition;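 note: spheroids exposed to agents for 7 days before viability read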
- cond: curve of first compound; second compound 1 µM
Express it in nM; write the number only.

Worked set:
{"columns": ["molecule", "numeric result"],
 "data": [
  ["CCN(c1cc(-c2ccc(CN3CCOCC3)cc2)cc(C(=O)NCc2c(C)cc(C)[nH]c2=O)c1C)C1CCOCC1 + NC1CCC(NC2CC2c2ccccc2)CC1", 2250],
  ["CC(C)CC(NC(=O)CNC(=O)c1cc(Cl)ccc1Cl)B1OC(=O)CC(CC(=O)O)(C(=O)O)O1 (configuration not stated) + NC1CC1c1ccc(-c2cccc(O)c2)cc1", 5.08],
  ["Nc1ccccc1NC(=O)c1ccc(CNC(=O)OCc2cccnc2)cc1 + NC1CC1c1ccc(-c2cccc(O)c2)cc1", 41.9]
]}

Next, consider the following molecule.
INPUT: Param item = O=C(c1cc(Cc2n[nH]c(=O)c3ccccc23)ccc1F)N1CCN(C(=O)C2CC2)CC1 + NC1CCC(NC2CC2c2ccccc2)CC1 ; retrieve measured IC50.
OUTPUT: 563

----------
- Test system: 885512-296-R-J2-PDC complex spheroid viability
- assay summary: Anticancer human tumor 885512-296-R-J2-PDC cell line growth inhibition;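 note: spheroids exposed to agents for 7 days before viability read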
- cond: second compound 1 µM; first compound 0.01 µM; stronger effect = lower value
Just a reminder that ties go to Not satisfied: only viability, T/C strictly below 30% counts as Satisfied.

Completed entries (count: 5):
{"columns": ["compound", "label"],
 "data": [
  ["Cn1ncnc1C1c2n[nH]c(=O)c3cc(F)cc(c23)NC1c1ccc(F)cc1 (configuration not stated) + NC1CCC(NC2CC2c2ccccc2)CC1", "Not satisfied"],
  ["CC1COCCN1c1cc(-c2ccnn2C)c2ccnc(-c3ccn[nH]3)c2n1 (configuration not stated) + NC1CC1c1ccc(-c2cccc(O)c2)cc1", "Satisfied"],
  ["Nc1ncn(C2CC(O)C(CO)O2)c(=O)n1 (configuration not stated) + NC1CCC(NC2CC2c2ccccc2)CC1", "Not satisfied"],
  ["CC(C)CC(NC(=O)CNC(=O)c1cc(Cl)ccc1Cl)B1OC(=O)CC(CC(=O)O)(C(=O)O)O1 (configuration not stated) + NC1CCC(NC2CC2c2ccccc2)CC1", "Satisfied"],
  ["CC[C@@]1(O)C(=O)OCc2c1cc1n(c2=O)Cc2cc3c(CN(C)C)c(O)ccc3nc2-1 + NC1CCC(NC2CC2c2ccccc2)CC1", "Satisfied"]
]}

Let's switch to this compound now.
INPUT: Is 30% strictly greater than the compound's reported viability, T/C? compound: O=C(C=Cn1cnc(-c2cc(C(F)(F)F)cc(C(F)(F)F)c2)n1)NNc1cnccn1 + NC1CC1c1ccc(-c2cccc(O)c2)cc1
OUTPUT: Satisfied

----------
- System: 885512-296-R-J2-PDC complex spheroid viability
- assay summary: Anticancer human tumor 885512-296-R-J2-PDC cell line growth inhibition;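 note: spheroids exposed to agents for 7 days before viability read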
- cond: second compound 3.16 µM; first compound 0.01 µM; stronger effect = lower value
experimental endpoint: viability, T/C (%)
Express the result in % but write the number alone.

Example entries begin here.
{"columns": ["compound", "test target", "unit string", "viability, T/C"],
 "data": [
  ["CC(C)CC(NC(=O)CNC(=O)c1cc(Cl)ccc1Cl)B1OC(=O)CC(CC(=O)O)(C(=O)O)O1 (stereo unspecified) + NC1CCC(NC2CC2c2ccccc2)CC1", "885512-296-R-J2-PDC complex spheroid viability", "%", 14.4],
  ["CC(C)CC(NC(=O)CNC(=O)c1cc(Cl)ccc1Cl)B1OC(=O)CC(CC(=O)O)(C(=O)O)O1 (stereo unspecified) + NC1CC1c1ccc(-c2cccc(O)c2)cc1", "885512-296-R-J2-PDC complex spheroid viability", "%", 8.61],
  ["CC1COCCN1c1cc(-c2ccnn2C)c2ccnc(-c3ccn[nH]3)c2n1 (stereo unspecified) + NC1CC1c1ccc(-c2cccc(O)c2)cc1", "885512-296-R-J2-PDC complex spheroid viability", "%", 2.58],
  ["COc1cc(Nc2ncc3c(n2)-c2ccc(Cl)cc2C(c2c(F)cccc2OC)=NC3)ccc1C(=O)O + NC1CCC(NC2CC2c2ccccc2)CC1", "885512-296-R-J2-PDC complex spheroid viability", "%", 42.1],
  ["CC(C)CC(NC(=O)C(Cc1ccccc1)NC(=O)c1cnccn1)B(O)O (stereo unspecified) + NC1CC1c1ccc(-c2cccc(O)c2)cc1", "885512-296-R-J2-PDC complex spheroid viability", "%", 0.01]
]}

INPUT: Query for 885512-296-R-J2-PDC complex spheroid viability: what viability, T/C does the record show for COc1cc(Nc2ncc3c(n2)-c2ccc(Cl)cc2C(c2c(F)cccc2OC)=NC3)ccc1C(=O)O + NC1CC1c1ccc(-c2cccc(O)c2)cc1 ?
OUTPUT: 29.8

INPUT: Quick check: viability, T/C on 885512-296-R-J2-PDC complex spheroid viability, item CC(C)CC(NC(=O)C(Cc1ccccc1)NC(=O)c1cnccn1)B(O)O (stereo unspecified) + NC1CCC(NC2CC2c2ccccc2)CC1 ?
OUTPUT: 0.23

INPUT: Request - read-out viability, T/C | tested on 885512-296-R-J2-PDC complex spheroid viability | compound Nc1ncn(C2CC(O)C(CO)O2)c(=O)n1 (stereo unspecified) + NC1CC1c1ccc(-c2cccc(O)c2)cc1
OUTPUT: 103

INPUT: Which measured viability, T/C belongs to Nc1ncn(C2CC(O)C(CO)O2)c(=O)n1 (stereo unspecified) + NC1CCC(NC2CC2c2ccccc2)CC1 , tested on 885512-296-R-J2-PDC complex spheroid viability?
OUTPUT: 72.6

INPUT: Please tell me: viability, T/C of O=C(C=Cn1cnc(-c2cc(C(F)(F)F)cc(C(F)(F)F)c2)n1)NNc1cnccn1 + NC1CCC(NC2CC2c2ccccc2)CC1 , system 885512-296-R-J2-PDC complex spheroid viability?
OUTPUT: 6.99

INPUT: State its viability, T/C on 885512-296-R-J2-PDC complex spheroid viability: Cn1ncnc1C1c2n[nH]c(=O)c3cc(F)cc(c23)NC1c1ccc(F)cc1 (stereo unspecified) + NC1CCC(NC2CC2c2ccccc2)CC1
OUTPUT: 75.2

INPUT: Find viability, T/C (885512-296-R-J2-PDC complex spheroid viability) for the entry CC[C@@]1(O)C(=O)OCc2c1cc1n(c2=O)Cc2cc3c(CN(C)C)c(O)ccc3nc2-1 + NC1CC1c1ccc(-c2cccc(O)c2)cc1
OUTPUT: 2.89

INPUT: Record lookup: for 885512-296-R-J2-PDC complex spheroid viability, what viability, T/C belongs to CC[C@@]1(O)C(=O)OCc2c1cc1n(c2=O)Cc2cc3c(CN(C)C)c(O)ccc3nc2-1 + NC1CCC(NC2CC2c2ccccc2)CC1 ?
OUTPUT: 6.21
